All figures here come from the supplement of paper PMC10724198.

# System: Saccharomyces cerevisiae
# Assay protocol: protein stability index of tFT-peptide fusion (C-terminal peptide) (PSI (0-1 scale)); higher = more stable (slower turnover)
# Condition set: genetic background: wild type; temperature: 30 C

>  <Monomer sequence>
KNEDSEVEDDLI [CUS2 C-terminal 12 aa]

>  <protein stability index>
0.67

$$$$
>  <Monomer sequence>
GRLFEGMPGTET [ITT1 C-terminal 12 aa]

>  <protein stability index>
0.71

$$$$
>  <Monomer sequence>
KSAKATKASQEL [HTA1 C-terminal 12 aa]

>  <protein stability index>
0.675

$$$$
>  <Monomer sequence>
TPLGPKPDIRPP [GTO3 C-terminal 12 aa]

>  <protein stability index>
0.693

$$$$
>  <Monomer sequence>
TTVDRTGNGAFW [YLR154C-H C-terminal 12 aa]

>  <protein stability index>
0.723

$$$$
>  <Monomer sequence>
FRHNRSNKKSGC [GEX2 C-terminal 12 aa]

>  <protein stability index>
0.668

$$$$
>  <Monomer sequence>
YLIAVTNLVERE [PPT2 C-terminal 12 aa]

>  <protein stability index>
0.723

$$$$
>  <Monomer sequence>
KEMWITGKIVED [IML1 C-terminal 12 aa]

>  <protein stability index>
0.664

$$$$
>  <Monomer sequence>
VPELTEKLGKYK [AIM45 C-terminal 12 aa]

>  <protein stability index>
0.676

$$$$
>  <Monomer sequence>
SGFFSSLKTMFN [PAR32 C-terminal 12 aa]

>  <protein stability index>
0.726

$$$$
>  <Monomer sequence>
ERINFVCETYGL [AIM14 C-terminal 12 aa]

>  <protein stability index>
0.7

$$$$
>  <Monomer sequence>
VWKRARVDLIAS [POL12 C-terminal 12 aa]

>  <protein stability index>
0.51

$$$$
>  <Monomer sequence>
FHLRHHKGAEEH [ATP17 C-terminal 12 aa]

>  <protein stability index>
0.678

$$$$
>  <Monomer sequence>
VACNPVAMADHQ [TUS1 C-terminal 12 aa]

>  <protein stability index>
0.677

$$$$
>  <Monomer sequence>
QKRKSRILSFIK [UBP9 C-terminal 12 aa]

>  <protein stability index>
0.732

$$$$
>  <Monomer sequence>
TCEKSKCNCEKC [CRS5 C-terminal 12 aa]

>  <protein stability index>
0.69

$$$$
>  <Monomer sequence>
HPFLLWQGQVFF [YCR022C C-terminal 12 aa]

>  <protein stability index>
0.7

$$$$
>  <Monomer sequence>
RDNQIPDKEIGI [CAF16 C-terminal 12 aa]

>  <protein stability index>
0.704

$$$$
>  <Monomer sequence>
YDKESDDRKCCL [CTR3 C-terminal 12 aa]

>  <protein stability index>
0.675

$$$$
>  <Monomer sequence>
TPVIDFSLKLAH [BNA6 C-terminal 12 aa]

>  <protein stability index>
0.7

$$$$
>  <Monomer sequence>
PISHVNNNDTHA [SLM3 C-terminal 12 aa]

>  <protein stability index>
0.688

$$$$
>  <Monomer sequence>
VSMKAIFSCMYV [YMR272W-B C-terminal 12 aa]

>  <protein stability index>
0.655

$$$$
>  <Monomer sequence>
GIILRSCWNPRQ [YOL159C-A C-terminal 12 aa]

>  <protein stability index>
0.69

$$$$
>  <Monomer sequence>
YMIRFIANGYYY [SWR1 C-terminal 12 aa]

>  <protein stability index>
0.614

$$$$
>  <Monomer sequence>
VDIALYLTRSQT [YGR039W C-terminal 12 aa]

>  <protein stability index>
0.694

$$$$
>  <Monomer sequence>
YTVLEDDANDEK [HAP1 C-terminal 12 aa]

>  <protein stability index>
0.7

$$$$
>  <Monomer sequence>
VTVYGGRSRMSA [YJL152W C-terminal 12 aa]

>  <protein stability index>
0.702

$$$$
>  <Monomer sequence>
TPLPGLSWPFNE [YIL014C-A C-terminal 12 aa]

>  <protein stability index>
0.74

$$$$
>  <Monomer sequence>
SVTAGYLPDLWR [YCH1 C-terminal 12 aa]

>  <protein stability index>
0.728

$$$$
>  <Monomer sequence>
IAQNVSRSSQQV [YMD8 C-terminal 12 aa]

>  <protein stability index>
0.731

$$$$
>  <Monomer sequence>
NNVDVSWVDKLV [STB5 C-terminal 12 aa]

>  <protein stability index>
0.714

$$$$
>  <Monomer sequence>
SLSSLSNQRCTT [YCR023C C-terminal 12 aa]

>  <protein stability index>
0.68

$$$$
>  <Monomer sequence>
NPAARLDEDLYE [FRS2 C-terminal 12 aa]

>  <protein stability index>
0.707

$$$$
>  <Monomer sequence>
IWVVDSLGSLVG [YPL142C C-terminal 12 aa]

>  <protein stability index>
0.699

$$$$
>  <Monomer sequence>
MVGVLFFWVWIT [BET1 C-terminal 12 aa]

>  <protein stability index>
0.123

$$$$
>  <Monomer sequence>
RQDNNHNGSSNG [MET32 C-terminal 12 aa]

>  <protein stability index>
0.706

$$$$
>  <Monomer sequence>
SVFIAAVAAMLI [CCW14 C-terminal 12 aa]

>  <protein stability index>
0.586

$$$$
>  <Monomer sequence>
KLYILKHLGSKQ [RRG9 C-terminal 12 aa]

>  <protein stability index>
0.685

$$$$
>  <Monomer sequence>
IYYMEQMLGKTQ [HSK3 C-terminal 12 aa]

>  <protein stability index>
0.696

$$$$
>  <Monomer sequence>
TAYFICGMVIQL [YDL041W C-terminal 12 aa]

>  <protein stability index>
0.34

$$$$
>  <Monomer sequence>
SNHECSQINLLE [YCL021W C-terminal 12 aa]

>  <protein stability index>
0.688

$$$$
>  <Monomer sequence>
FASPTLSFFFPI [YGL149W C-terminal 12 aa]

>  <protein stability index>
0.706

$$$$
>  <Monomer sequence>
LKAVCPPDAGFA [YOR387C C-terminal 12 aa]

>  <protein stability index>
0.746

$$$$
>  <Monomer sequence>
DGGVKRIRVWGY [DAL2 C-terminal 12 aa]

>  <protein stability index>
0.703

$$$$
>  <Monomer sequence>
VADAMLDQGDVF [GDH3 C-terminal 12 aa]

>  <protein stability index>
0.689

$$$$
>  <Monomer sequence>
SQIRTPLVMLLM [YOR318C C-terminal 12 aa]

>  <protein stability index>
0.454

$$$$
>  <Monomer sequence>
LKHFIKVFSSKL [ARR1 C-terminal 12 aa]

>  <protein stability index>
0.89

$$$$
>  <Monomer sequence>
HIDIPDFAKWDI [SUL2 C-terminal 12 aa]

>  <protein stability index>
0.719

$$$$
>  <Monomer sequence>
FVFALSYPYEEI [ALG2 C-terminal 12 aa]

>  <protein stability index>
0.693

$$$$
